# System: NOMO1
# protocol_notes: cell viability relative to DMSO control; higher = less cytotoxic
# stated_conditions: HPLM + 10% dialyzed FBS; 48 h; 46.1 µM
Below, each entry is listed with its recorded cell viability.
assay_endpoint: cell viability (%)

>>> print(df.to_string())
                               query_smiles  assay_endpoint  numeric_readout
0  O=C(Oc1ccc([N+](=O)[O-])cc1)N1CCC(C(O)(c2ccc3c(c2)OCO3)c2ccc3c(c2)OCO3)CC1  cell viability             58.4
1                           Nc1ncnc2ccccc12  cell viability              105
2  O=C(Cc1ccc(-c2ccc(OCCN3CCOCC3)cc2)cn1)NCc1ccccc1  cell viability             40.6
3  COCCOc1nc(-c2ccc(Cl)c(Cl)c2)n(-c2ccc(NC(=O)CCl)cc2)n1  cell viability              107

###

# Tested on: NOMO1
# protocol_notes: cell viability relative to DMSO control; higher = less cytotoxic
# stated_conditions: RPMI 5 mM glucose + 10% FBS; 48 h; 0.0632 µM
Listed here: items and their measured cell viability.
assay_endpoint: cell viability (%)

compound	assay_endpoint	units_label	numeric_readout
COC1=CC=C(C=C1O)C/2=C/C(=O)C3=C(O2)C=C(O)C=C3O	cell viability	%	94.5
COc1ccc(C2Sc3ccccc3N(CCN(C)C)C(=O)C2OC(C)=O)cc1 (configuration not stated)	cell viability	%	100
COc1ccc([C@@H]2CC(=O)c3c(O)cc(O[C@@H]4O[C@H](CO[C@@H]5O[C@@H](C)[C@H](O)[C@@H](O)[C@H]5O)[C@@H](O)[C@H](O)[C@H]4O)cc3O2)cc1O	cell viability	%	105
C[C@]12CC[C@H]3[C@@H](C\C=C/4C[C@@H](O)CC[C@]34C)[C@@H]1CCC2=O	cell viability	%	116
COc1ccc(Nc2nccc(NCCO)n2)cc1	cell viability	%	79.6
NC(=O)C1CCCc2c1[nH]c1ccc(Cl)cc21 (configuration not stated)	cell viability	%	105
Cn1c(=O)n(-c2ccc(C(C)(C)C#N)cc2)c2c3cc(-c4cnc5ccccc5c4)ccc3ncc21	cell viability	%	106

###

# System: SEM cells
# protocol_notes: cell viability relative to DMSO control; higher = less cytotoxic
# stated_conditions: RPMI 5 mM glucose + 10% dialyzed FBS; 48 h; 0.569 µM
assay_endpoint: cell viability (%)

                               query_smiles  units_label  numeric_readout
0  C[C@]12CC[C@@H]3c4ccc(O)cc4CC[C@H]3[C@@H]1C[C@@H](O)[C@@H]2O            %              126
1               COc1ccc(Nc2nccc(NCCO)n2)cc1            %             81.4
2  CC(/C=C/C(=O)NO)=C\[C@@H](C)C(=O)c1ccc(N(C)C)cc1            %             56.2

###

# Test system: P12-Ichikawa
# protocol_notes: cell viability relative to DMSO control; higher = less cytotoxic
# stated_conditions: HPLM + 10% dialyzed FBS; 48 h; 0.19 µM
Reported cell viability values are given for each entry in this list.
assay_endpoint: cell viability (%)

compound	numeric_readout
ClC1=CC\2=C(OC3=C(C=CC=C3)\N=C2N4CCNCC4)C=C1	101
OC(=O)C(CC/1=C/C(=O)NC2=CC=CC=C12)NC(=O)C3=CC=C(Cl)C=C3 (stereo not given)	125
CC[C@@]1(O)C(=O)OC\C2=C1\C=C\3N(CC4=C3N=C5C=CC=CC5=C4)C2=O	10.1
CC[C@]12\C=C/CN3CC[C@]4([C@@H](N(C)C5=CC(=C(C=C45)[C@]6(C[C@H]7C[C@H](CN(C7)CC8=C6[NH]C9=C8C=CC=C9)C(C)(F)F)C(=O)OC)OC)[C@](O)([C@@H]1OC(C)=O)C(=O)OC)[C@H]23	12
CC1(C)CNc2cc(NC(=O)c3cccnc3NCc3ccncc3)ccc21	116
COc1ccc(C2Sc3ccccc3N(CCN(C)C)C(=O)C2OC(C)=O)cc1 (stereo not given)	121
O=C(Cc1ccc(-c2ccc(OCCN3CCOCC3)cc2)cn1)NCc1ccccc1	17.3
Cn1c(=O)n(-c2ccc(C(C)(C)C#N)cc2)c2c3cc(-c4cnc5ccccc5c4)ccc3ncc21	98
CCN(C(=O)C/1=C(O)/C2=C(C=CC=C2Cl)N(C)C1=O)C3=CC=CC=C3	93.2
Nc1nc(N)c2nc(-c3cccc(O)c3)c(-c3cccc(O)c3)nc2n1	117
CCCCC(C=O)NC(=O)C(CC(C)C)NC(=O)OCc1ccccc1 (stereo not given)	91.8
CC[C@H](NC(=O)[C@H](C)NC)C(=O)N1C[C@@H](O)C[C@H]1Cc1c(-c2[nH]c3cc(F)ccc3c2C[C@@H]2C[C@H](O)CN2C(=O)[C@H](CC)NC(=O)[C@H](C)NC)[nH]c2cc(F)ccc12	125
CC(C)c1ccc(Cn2ccc3c4c(N)nc(NC5CC5)nc4ccc32)cc1	100
CCC(=O)N[C@H]1CC[C@H](C(=O)N(C)c2ccc(-c3nc4ccccc4o3)cc2)C1	99.5
COC/1=C/C=C2\C(=C/C1=O)[C@H](CCC3=CC(=C(OC)C(=C23)OC)OC)NC(C)=O	9.53

###

cell viability for assorted compounds
# Test system: SEM cells
# protocol_notes: cell viability relative to DMSO control; higher = less cytotoxic
# stated_conditions: RPMI 5 mM glucose + 10% dialyzed FBS; 48 h; 0.00702 µM
assay_endpoint: cell viability (%)

                                    compound  numeric_readout
 0  CC[C@H](C)C(=O)O[C@H]1C[C@H](O)\C=C2\C=C/[C@H](C)[C@H](CC[C@@H](O)C[C@@H](O)CC(O)=O)[C@@H]12              121
 1  COC[C@H](c1ccc(C(F)(F)F)cc1)N1CCN(C2(C)CCN(C(=O)c3c(C)ncnc3C)CC2)C[C@H]1C.O=C(O)/C=C\C(=O)O             97.1
 2  OC(=O)C(CC/1=C/C(=O)NC2=CC=CC=C12)NC(=O)C3=CC=C(Cl)C=C3 (configuration not stated)              126
 3  ClC1=CC\2=C(NC(=O)\C(=C2N[C@@H]3CN4CCC3CC4)C5=NC6=C([NH]5)C=CC=C6)C=C1               98
 4  COc1cc2c(Nc3ccc(Br)cc3F)ncnc2cc1OCC1CCN(C)CC1               91
 5  CN1CCN2c3ncccc3Cc3ccccc3C2C1 (configuration not stated)              113
 6  c1ccc(CNc2nc(N3CCOc4ccccc43)nc3c2CCCC3)cc1             96.5
 7  CC(C)c1ccc(Cn2ccc3c4c(N)nc(NC5CC5)nc4ccc32)cc1              123
 8  CC(C)C[C@H](NC(=O)CNC(=O)c1cc(Cl)ccc1Cl)B(O)O             90.6
 9  COC(=O)C1C2CC3c4[nH]c5cc(OC)ccc5c4CCN3CC2CC(OC(=O)c2cc(OC)c(OC)c(OC)c2)C1OC (configuration not stated)              113
10                 O=C(O)/C=C/c1ccc(O)c(O)c1              111
11  CCC(=C/[C@H](C)C/C=C/C(C)=C/[C@@H](C)C(=O)[C@@H](C)[C@H](O)[C@@H](C)C/C(C)=C/C(=O)O)/C=C/[C@@H]1OC(=O)C=C[C@@H]1C             95.4
12  COC1=CC=CC(=C1N)\C2=C\C(=O)C3=C(O2)C=CC=C3              134
13  CC(=O)OCCN1C(=O)c2c(C)nc3ccc([S+](=O)([O-])N4CCOCC4)cc3c2C1=O              138
14      Nc1cccc2c1CN([C@H]1CCC(=O)NC1=O)C2=O              117
15  Cc1cc(Nc2cc(CN3CCOCC3)c3nc(C)c(Cc4ccc(Cl)cc4F)n3n2)[nH]n1              122
16  Cc1cccc(CN2CCN(C(c3ccccc3)c3ccc(Cl)cc3)CC2)c1 (configuration not stated)              122
17  CC(/C=C/C(=O)NO)=C\[C@@H](C)C(=O)c1ccc(N(C)C)cc1              116
18  COc1ccc2c(c1)c(CC(=O)OCC(=O)O)c(C)n2C(=O)c1ccc(Cl)cc1              123
19  O=C\1N(N\C=C1[N]2C=CN=N2)C3=NC=NC(=C3)N4CCOCC4             74.1
20  C[C@@H](NC(=O)c1ncnc(N)c1Cl)c1ncc(C(=O)Nc2cc(C(F)(F)F)c(Cl)cn2)s1              112
21  O=C(Oc1ccc([N+](=O)[O-])cc1)N1CCC(C(O)(c2ccc3c(c2)OCO3)c2ccc3c(c2)OCO3)CC1             61.6

All figures here come from the supplement of paper PMC11451515.
